As shown below, each of these compounds has a reported composite z-score value.
test system: wheat germ agglutinin (Triticum aestivum), Alexa647-labelled; test: wheat germ agglutinin binders on compound microarrays, profiling panel, artefact control for SMM control-protein annotation, biochemical, small-molecule microarray, 635/667 nm fluorescence (AID 1140); conditions: WGA-A647 binding, 635 nm fluorescence, higher = more signal;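 further: score merges 667 nm feature emission with signal to noise over triplicate slides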
Measured Quantity: composite z-score

Smiles String	Experimental Result
COc1cccc([C@H]2Oc3ccc(OC)cc3C(=NOC[C@@H](O)COCc3ccco3)[C@@H]2O)c1	-0.418
CO[C@@H]1COC(=O)CC=C[C@@H](C)[C@@H]2C=C[C@H](O)[C@@H](COC(=O)CC=C[C@H]1C)O2	-0.448
COC(=O)CC=C[C@@H](C)[C@@H](C=NO[C@@H]1O[C@H](COC(C)=O)[C@@H](OC(C)=O)[C@H](OC(C)=O)[C@H]1OC(C)=O)NS(=O)(=O)c1ccc(C)cc1	-0.986
COC(=O)[C@@H]1CC[C@@H](C)[C@H](c2ccc(Br)cc2)N1	0.0075
CC(C)CCN1CCc2nc(COc3ccccc3)c3c(c2C1)CO[C@@H](C)C3	0.451
C[C@@H]1C=CCC(=O)OC[C@H]2O[C@@H](C=C[C@@H]2O)[C@H](C)C=CCC(=O)OC1	-0.513
CO[C@@H]1COC(=O)[C@@H](C)NC(=O)CC=C[C@@H](C)[C@H](NS(=O)(=O)c2ccc(C)cc2)COC(=O)[C@H](C)NC(=O)CC=C[C@H]1C	-0.694
COC(=O)CC=C[C@@H](C)[C@@H](C=NOC[C@H]1O[C@H](c2ccccc2)C=C[C@@H]1Oc1ccc(OC)cc1)OC	-0.0524
CC(=O)OC[C@H]1O[C@H](CC=NO[C@H](C)c2cn([C@H](CO)Cc3ccccc3)nn2)C=C[C@@H]1OC(C)=O	0.439
O=C1[C@H]2[C@H]3[C@H](O)[C@H](O)CC(=NOCc4ccccc4)[C@H]3CC[C@H]2C(=O)N1Cc1ccc2c(c1)OCO2	0.492
O=C1[C@H]2[C@H]3[C@H](O)[C@H](O)CC(=NOC[C@@H](O)COCc4ccco4)[C@H]3CC[C@H]2C(=O)N1C[C@@H]1CCCO1	-0.23

Values were extracted from PubChem BioAssay.
